Reported kon values are given for each entry in this list.
# measurement target: T1, cynomolgus monkey IgE CH3-CH4 (cynomolgus monkey)
# T1 construct: domain: CH3-CH4; Custom protein; also called Biotin -cyno IgE CH3-CH4; Biotin-cyno IgE
# protocol notes: BLI (Octet), method of Example 2, biotinylated cynomolgus IgE CH3-CH4
Please reply with the bare figure in M⁻¹ s⁻¹ and do not write the unit itself.

Here is how some binders turned out for kon.
AB1904Am2 (antibody, V domains shown, IgG1 format) VH: EVQLVESGGGLVQPGGSLRLSCAVSGYSIRSGYSWNWVRQAPGKGLEWVSVITYAGSTNYADSVKGRFTISRDDSKNTFYLQMNSLRAEDTAVYYCARGSHYFGHWHFAVWGQGTLVTVSS VL: DIQLTQSPSSLSASVGDRVTITCRASQSVADEWDSYMNWYQQKPGKAPKLLIYAASYLQSGVPSRFSGSGSGTDFTLTISSLQPEDFATYYCQQSHEDPYTFGQGTKLEIK | 2.06e+06
AB1904Am3 (antibody, V domains shown, IgG1 format) VH: EVQLVESGGGLVQPGGSLRLSCAVSGYSITSGYSWNWVRQAPGKGLEWVSVITYAGSTNYADSVKGRFTISRDDSKNTFYLQMNSLRAEDTAVYYCARGTHYFGHWHFAVWGQGTLVTVSS VL: DIQLTQSPSSLSASVGDRVTITCRASQSVDAEGDSYMNWYQQKPGKAPKLLIYAASYLQSGVPSRFSGSGSGTDFTLTISSLQPEDFATYYCQQSHEDPYTFGQGTKLEIK | 1.7e+06
AB1904Am11 (antibody, V domains shown, IgG1 format) VH: EVQLVESGGGLVQPGGSLRLSCAVSGYSITSGYSWNWVRQAPGKGLEWVSVITYAGSTNYADSVKGRFTISRDDSKNTFYLQMNSLRAEDTAVYYCARGTHYFGHWHFAVWGQGTLVTVSS VL: DIQLTQSPSSLSASVGDRVTITCRASQSVNDEADSYMNWYQQKPGKAPKLLIYAASYLQSGVPSRFSGSGSGTDFTLTISSLQPEDFATYYCQQSHEDPYTFGQGTKLEIK | 1.5e+06
AB1904Am6 (antibody, V domains shown, IgG1 format) VH: EVQLVESGGGLVQPGGSLRLSCAVSGYSITSGYSWNWVRQAPGKGLEWVSVITYAGSTNYADSVKGRFTISRDDSKNTFYLQMNSLRAEDTAVYYCARGSNYFGHWHFAVWGQGTLVTVSS VL: DIQLTQSPSSLSASVGDRVTITCRASQSVDSEGDSYMNWYQQKPGKAPKLLIYAASYLQSGVPSRFSGSGSGTDFTLTISSLQPEDFATYYCQQSHEDPYTFGQGTKLEIK | 1.74e+06

Documented kon of AB1904Am5 (antibody, V domains shown, IgG1 format) VH: EVQLVESGGGLVQPGGSLRLSCAVSGYSITSGYSWNWVRQAPGKGLEWVSVITYAGSTNYADSVKGRFTISRDDSKNTFYLQMNSLRAEDTAVYYCARGSHYFGHWHFAVWGQGTLVTVSS VL: DIQLTQSPSSLSASVGDRVTITCRASQSVDDEYDSYMNWYQQKPGKAPKLLIYAASYLQSGVPSRFSGSGSGTDFTLTISSLQPEDFATYYCQQSHEDPYTFGQGTKLEIK : 1.77e+06

Where do the numbers come from? From patent US20230250191A1.
